# ASSAY_PROTOCOL: inhibition of PAO1 biofilm formation – strain PAO1, LB-PBS medium, absorbance 600 nm, primary screen (AID 1176); also: test concentration not given here
# STATED_CONDITIONS: P. aeruginosa PAO1 growth/biofilm, A600, 12 h; higher = more signal
Classification field: Fulfilled = z-score at or over 0.6; Not fulfilled = z-score under 0.6.

Example entries and their recorded answers appear below.
Tell me whether z-score is at least 0.6 here: `COc1ccc([Si](C)(C)[C@H]2[C@H](CCO)O[C@@]3(C(=O)N(Cc4ccc(NC(=O)[C@H](C)O)cc4)c4ccccc43)[C@@H]2C)cc1` Not fulfilled

Tell me whether z-score is at least 0.6 here: `CCCC=C(CCC)[C@@H](NC(=O)OCC(C)C)c1ccc(C(=O)OC)cc1` Not fulfilled

Tell me whether z-score is at least 0.6 here: `COC(=O)[C@@]1(Cc2ccc(F)cc2)[C@H]2c3cc(C(=O)N4CCCC4)n(Cc4cc(F)cc5c4OCOC5)c3C[C@H]2CN1C(=O)c1ccccc1` Not fulfilled

Tell me whether z-score is at least 0.6 here: `Cc1ccc(S[C@]2(C(=O)NCC(F)(F)F)CC(=O)N(Cc3ccccc3C(F)(F)F)[C@@H]2c2ccc(CO)cc2)cc1` Not fulfilled

Tell me whether z-score is at least 0.6 here: `COc1ccc(C(=O)Nc2ccc(CN3C(=O)[C@@]4(O[C@@H](CCn5cc(CCO)nn5)[C@H]([Si](C)(C)c5ccc(OC)cc5)[C@H]4C)c4ccccc43)cc2)cc1` Fulfilled

Tell me whether z-score is at least 0.6 here: `O=C(NCc1ccc(F)cc1)[C@H]1C[C@H]2C(=O)N3CCC[C@H]3C(=O)N2[C@H]1c1ccc(O)cc1` Fulfilled

Tell me whether z-score is at least 0.6 here: `O=C1O[C@@H](c2ccccc2)[C@@H](c2ccccc2)N2[C@@H](c3ccc(OCCO)cc3)[C@]3(C(=O)Nc4ccc(C#CCCO)cc43)[C@@H](C(=O)O)[C@H]12` Not fulfilled

Tell me whether z-score is at least 0.6 here: `NCCCCCCNC(=O)[C@@H]1C[C@@H]2C(=O)N3CCC[C@H]3C(=O)N2[C@@H]1c1cccc(OCCO)c1` Not fulfilled

Tell me whether z-score is at least 0.6 here: `C=CCOC(=O)[C@@H]1[C@H]2C(=O)O[C@H](c3ccccc3)[C@H](c3ccccc3)N2[C@H](c2ccc(OCCOC(=O)[C@H]3C[C@H]4C(=O)N[C@@H](CCCCN(C)C)C(=O)N4[C@H]3c3ccc(O)cc3)cc2)[C@@]12C(=O)Nc1ccc(I)cc12` Fulfilled

Tell me whether z-score is at least 0.6 here: `COCCOC(=O)N1C(=O)[C@@]2(c3cc(C#CC4(O)CCCCCC4)ccc31)[C@H](c1ccc(O)cc1)N1[C@H](c3ccccc3)[C@H](c3ccccc3)OC(=O)[C@H]1[C@@H]2C(=O)N1CCCCCCC1` Fulfilled

Next:
Tell me whether z-score is at least 0.6 here: C=C(C)[C@@H]1CC=C(C(O)C2C=CC3C(=O)N(c4ccccc4)C(=O)C3N2Nc2ccc([N+](=O)[O-])cc2)CC1 (stereo partly drawn) Fulfilled

Tell me whether z-score is at least 0.6 here: `COC(=O)[C@@]1(Cc2ccccc2)[C@H]2c3cc(C(=O)N(C)C)n(CCO)c3C[C@H]2CN1C(=O)c1ccccc1` Not fulfilled

Tell me whether z-score is at least 0.6 here: CC(C)=CCCC=C(C)C(O)C1C=CC2C(=O)N(c3ccccc3)C(=O)C2N1Nc1ccc(C#N)cc1 (stereo not drawn) Fulfilled

All values here come from PubChem BioAssay.
